Target entity: Kv1.3 (Homo sapiens, UniProt P22001)
Sequence (P22001 whole entry): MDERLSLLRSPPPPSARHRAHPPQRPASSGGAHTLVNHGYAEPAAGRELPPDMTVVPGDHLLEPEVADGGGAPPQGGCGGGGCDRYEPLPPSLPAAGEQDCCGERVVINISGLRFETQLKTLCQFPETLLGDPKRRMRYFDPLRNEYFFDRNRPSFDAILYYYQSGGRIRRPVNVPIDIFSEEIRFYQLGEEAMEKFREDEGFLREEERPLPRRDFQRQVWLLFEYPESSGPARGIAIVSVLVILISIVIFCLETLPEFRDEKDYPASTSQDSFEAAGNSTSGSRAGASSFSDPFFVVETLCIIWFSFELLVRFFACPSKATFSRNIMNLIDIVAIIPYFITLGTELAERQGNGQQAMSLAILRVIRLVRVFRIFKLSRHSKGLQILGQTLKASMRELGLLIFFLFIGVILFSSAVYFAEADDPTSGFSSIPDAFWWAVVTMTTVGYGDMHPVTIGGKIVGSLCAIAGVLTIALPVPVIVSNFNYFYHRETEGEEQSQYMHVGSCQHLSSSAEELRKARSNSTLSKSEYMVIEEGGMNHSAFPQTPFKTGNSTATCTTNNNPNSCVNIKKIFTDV
Method description: Electrophysiology: planar patch-clamp of Kv1.3 currents, IC50 from steady state current amplitude
Test settings: Kv1.3 electrophysiology, results according to Method D1, read-out: IC50 (Kv1.3 ephys steady state)
pIC50: −log10 of the molar value.
In this section we review reported pIC50 values for a set of compounds.
Readout name: pIC50

CCC(c1ccc(S(=O)(=O)CC)cc1)N(Cc1cccnn1)C(=O)C1CC1c1ccc(F)cc1 (stereo not drawn): 5.70 to 6.00
CCC(c1ccc(S(C)(=O)=O)cc1)N(Cc1ccc(F)cn1)C(=O)C1CC1c1ccc(F)cc1 (stereo not drawn): 6.70 to 7.30
O=C(CS(=O)(=O)c1ccccc1)N(Cc1ncccc1F)C(c1ccc(OC(F)F)cc1)C1CC1 (stereo not drawn) [Example 303]: 6.70 to 7.30
CC(C)S(=O)(=O)c1ccc(C(C2CC2)N(Cc2ccc(F)cn2)C(=O)C2CC2c2ccc(F)cc2)cc1 (stereo not drawn) [Example 238]: 6.70 to 7.30
C[C@@H](CC(=O)N(Cc1ccccn1)[C@H](c1ccc(Cl)cc1)C1CC1)S(=O)(=O)c1ccc(F)cc1 (single isomer, unassigned): > 7.30
CN1CCC(C(c2ccc(F)cc2F)N(Cc2ccc(F)cn2)C(=O)CS(=O)(=O)c2ccc(F)cc2)CC1 (stereo not drawn): 6.00 to 6.70
CC(c1ccc(S(C)(=O)=O)cc1)N(Cc1ccc(C(F)(F)F)nc1)C(=O)C1CC1c1ccc(F)cc1 (stereo not drawn): 6.00 to 6.70
CC(C)(C(=O)N(Cc1ccccn1)C(c1ccc(OC(F)F)cc1)C1CC1)S(=O)(=O)c1ccc(F)cc1 (stereo not drawn) [Example 318]: 6.70 to 7.30
O=C(C1CC1c1ccc(F)cc1)N(Cc1ccc(F)cn1)C(c1ccc(F)cc1)C1CCOC1 (stereo not drawn) [Example 175]: 6.00 to 6.70
CCc1noc(C(C)N(Cc2ccccn2)C(=O)CC(C)c2ccc(F)cc2)n1 (stereo not drawn): 6.00 to 6.70
O=C(N(Cc1ccccn1)[C@H](c1ccc(OC(F)F)cc1)C1CC1)C1(S(=O)(=O)c2ccc(F)cc2)CC1: 6.00 to 6.70
CC(C)(C(=O)N(Cc1ccccn1)C(c1ccc(OC(F)F)cc1)C1CC1)S(=O)(=O)c1ccc(F)cc1 (stereo not drawn) [Example 319]: 6.70 to 7.30
O=C(C1C[C@H]1c1ccc(F)cc1)N(Cc1ccccn1)[C@@H](c1ccc(Cl)cc1)C1CC1 (stereo in doubt): 6.70 to 7.30
Cc1cccc(CN(C(=O)CS(=O)(=O)c2ccc(F)cc2)C(c2ccc(OC(F)F)cc2)C2CC2)n1 (stereo not drawn): > 7.30
CN1CCC(C(c2cccc(C(F)(F)F)c2)N(Cc2cncc(F)c2)C(=O)C2CC2c2ccc(F)cc2)CC1 (stereo not drawn): 6.00 to 6.70
